B1: CPEB3 Ribozyme (parent)
chain: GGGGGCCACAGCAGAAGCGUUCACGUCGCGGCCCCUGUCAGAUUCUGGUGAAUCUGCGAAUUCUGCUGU

Variants of: B1
Assay: self-cleavage, relative activity (ratio to wild type); higher = more cleavage; co-transcriptional
Category scheme (self-cleavage): low value: < 0.3; medium value: ≥ 0.3 and < 0.7; high value: ≥ 0.7

C6G G41U : low value

Could you place U20A U49A in its proper category? Many thanks.
low value

From: the RNAGym collection of RNA variant scans (doi:10.7554/elife.80360)
